Source of measurements: patent US20250388664A1

target: T1, truncated hTfR1 of SEQ ID NO:122 (human, UniProt P02786 122-760); experiment: SPR, FLAG-captured TfR1, scFv injected, 1:1 fit
T1 construct: also called human TfR1; Human TfR1
T1 sequence (P02786 other isoform, or with tags, fused parts or gaps limits assumed): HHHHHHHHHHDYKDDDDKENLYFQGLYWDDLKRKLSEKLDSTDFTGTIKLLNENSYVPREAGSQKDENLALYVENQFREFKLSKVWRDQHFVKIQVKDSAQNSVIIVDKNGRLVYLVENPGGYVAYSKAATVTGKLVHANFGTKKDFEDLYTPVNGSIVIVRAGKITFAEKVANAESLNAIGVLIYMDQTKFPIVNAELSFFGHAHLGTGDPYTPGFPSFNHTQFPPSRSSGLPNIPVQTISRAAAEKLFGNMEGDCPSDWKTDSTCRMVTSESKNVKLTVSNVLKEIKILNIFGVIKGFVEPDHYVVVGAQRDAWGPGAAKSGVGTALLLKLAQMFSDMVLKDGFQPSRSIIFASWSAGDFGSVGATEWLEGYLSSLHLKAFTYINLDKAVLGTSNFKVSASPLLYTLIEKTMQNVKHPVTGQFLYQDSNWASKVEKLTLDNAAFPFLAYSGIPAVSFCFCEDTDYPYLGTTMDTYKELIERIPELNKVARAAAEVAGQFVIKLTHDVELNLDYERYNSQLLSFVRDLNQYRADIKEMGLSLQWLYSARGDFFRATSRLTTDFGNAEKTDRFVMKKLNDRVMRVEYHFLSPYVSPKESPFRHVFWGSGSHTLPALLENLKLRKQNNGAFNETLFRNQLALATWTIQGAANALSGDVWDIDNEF
endpoint: koff (s⁻¹)
Give the value, in units of s⁻¹, as a plain number.

{"binder": "h26D3-HC6_DS, VL-first (scFv) scFv: DIQMTQSPSSVSASVGDRVTITCKSSQSLLYSTNQKNYLAWYQQKPGKAPKLLIYWASTRESGVPSRFSGSGSGTDFTLTISSLQPEDFATYYCQQYFIYPRTFGCGTKVEIKGGGGSGGGGSGGGGSGGGGSEVQLVQSGAEVKKPGSSVKVSCKASGYIFTDYNMDWVRQAPGQCLEWIGDINPDADTTSYNEKFKGRATLTVDKSTSTAYMELSSLRSEDTAVYYCARGGYSGSSYYHPMDYWGQGTLVTVSS", "endpoint": "koff", "measurement_units": "s⁻¹", "recorded_measurement": 0.00434}

# context switch: different binder, same koff
## Task Record request: koff value, item h26D3 HC6 DS S16E L118S (scFv, also called h26D3 DS S16E L118S) scFv: HHHHHHGGGGSGGGGSGGGGSGGGGSDIQMTQSPSSVSASVGDRVTITCKSSQSLLYSTNQKNYLAWYQQKPGKAPKLLIYWASTRESGVPSRFSGSGSGTDFTLTISSLQPEDFATYYCQQYFIYPRTFGCGTKVEIKGGGGSGGGGSGGGGSGGGGSEVQLVQSGAEVKKPGESVKVSCKASGYIFTDYNMDWVRQAPGQCLEWIGDINPDADTTSYNEKFKGRATLTVDKSTSTAYMELSSLRSEDTAVYYCARGGYSGSSYYHPMDYWGQGTSVTVSS
## Result 0.00387
